Give measured microsomal CLint at 1 µM for each item. Keep answers brief.
Assay: Lung S9 metabolism
Assay type: in vitro ADME, human
Conditions: lung S9 fraction, pH 7.4; human lung S9, 1 μM compound, 1 mg/mL S9 protein, NADPH and PAPS; read-out: Clearance
One number for each entry, in µL/min/mg.

CCc1cc(O)c(F)cc1-c1ccc2c(-c3nc4c([nH]3)CN(C(C)C)[C@H](C(=O)N3CCCN(C)CC3)C4)n[nH]c2c1 [Compound C-4, reference compound]	53.4

Hey, can you go through the list below and give me microsomal CLint at 1 µM for every item?
1. CCc1cc(O)c(F)cc1-c1ccc2c(-c3nc4c([nH]3)CN(C)[C@H](C(=O)N3CCN(CCO)C[C@H]3C)C4)n[nH]c2c1 [Compound C-5, reference compound]
2. CCc1cc(O)ccc1-c1ccc2c(-c3nc4c([nH]3)CN(C)[C@H](C(=O)N3CCN(C)C[C@@H]3C)C4)n[nH]c2c1
3. CCc1cc(O)ccc1-c1ccc2c(-c3nc4c([nH]3)CN(C(C)C)[C@H](C(=O)N3CCCN(C)CC3)C4)n[nH]c2c1
4. CCCN1Cc2[nH]c(-c3n[nH]c4cc(-c5cc(F)c(O)cc5CC)ccc34)nc2C[C@H]1C(=O)N1CCN(CCO)CC1 [Compound C-1, reference compound]

OUTPUT:
1. 42.2
2. 2.6
3. 2.1
4. 20.8

INPUT: I am curious: what microsomal CLint at 1 µM value has been reported for CCc1cc(O)c(F)cc1-c1ccc2c(-c3nc4c([nH]3)CN(C)[C@H](C(=O)N3CCN(C)C[C@@H]3C)C4)n[nH]c2c1 [Compound C-3, reference compound] ?
OUTPUT: 33.2

---

Could you please report measured Tyk2 pKi for the items listed next?
Target: Tyk2 (Homo sapiens (Human), UniProt P29597)
Sequence (P29597 whole entry): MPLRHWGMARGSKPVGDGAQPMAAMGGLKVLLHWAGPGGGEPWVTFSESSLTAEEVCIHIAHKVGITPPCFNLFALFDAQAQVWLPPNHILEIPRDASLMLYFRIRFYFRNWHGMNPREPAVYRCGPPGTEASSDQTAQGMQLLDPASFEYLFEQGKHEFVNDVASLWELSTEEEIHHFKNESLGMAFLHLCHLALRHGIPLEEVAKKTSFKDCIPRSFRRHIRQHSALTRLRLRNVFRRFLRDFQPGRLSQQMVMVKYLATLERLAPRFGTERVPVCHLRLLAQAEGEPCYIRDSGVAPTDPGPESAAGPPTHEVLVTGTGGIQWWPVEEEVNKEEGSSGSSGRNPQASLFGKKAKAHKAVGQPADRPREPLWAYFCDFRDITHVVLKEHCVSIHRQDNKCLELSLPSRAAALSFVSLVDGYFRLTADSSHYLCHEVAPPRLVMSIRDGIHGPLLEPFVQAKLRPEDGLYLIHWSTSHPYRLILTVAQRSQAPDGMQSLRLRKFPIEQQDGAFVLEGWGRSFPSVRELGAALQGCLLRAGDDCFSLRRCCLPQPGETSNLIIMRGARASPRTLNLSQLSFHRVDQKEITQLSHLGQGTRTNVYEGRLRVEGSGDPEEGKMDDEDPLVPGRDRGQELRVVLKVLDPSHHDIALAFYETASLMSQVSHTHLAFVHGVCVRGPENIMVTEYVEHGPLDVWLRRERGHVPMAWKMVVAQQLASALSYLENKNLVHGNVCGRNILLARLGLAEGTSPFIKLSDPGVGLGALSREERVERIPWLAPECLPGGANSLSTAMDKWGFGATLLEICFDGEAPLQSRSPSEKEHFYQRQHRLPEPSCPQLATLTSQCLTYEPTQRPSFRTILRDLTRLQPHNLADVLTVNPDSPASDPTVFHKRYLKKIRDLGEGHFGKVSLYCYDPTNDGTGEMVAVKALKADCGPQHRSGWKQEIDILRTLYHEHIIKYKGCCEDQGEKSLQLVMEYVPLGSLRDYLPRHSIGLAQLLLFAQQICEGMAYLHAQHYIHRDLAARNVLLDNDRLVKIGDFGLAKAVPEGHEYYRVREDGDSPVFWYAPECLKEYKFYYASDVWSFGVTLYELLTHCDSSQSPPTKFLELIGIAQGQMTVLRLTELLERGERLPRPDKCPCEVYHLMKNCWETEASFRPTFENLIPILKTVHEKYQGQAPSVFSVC
Test: Biochemical JAK kinase assay (LanthaScreen), Tyk2
Conditions: ATP at Km 10 μM; pIC50 converted with Cheng-Prusoff
Description: Assay 1: Biochemical JAK Kinase Assays A panel of four LanthaScreen JAK biochemical assays (JAK1, 2, 3 and Tyk2) were carried in a common kinase reaction buffer (50 mM HEPES, pH 7.5, 0.01% Brij-35, 10 mM MgCl2, and 1 mM EGTA). […] For dose-response analysis, percent inhibition data were plotted vs. compound concentrations, and IC50 values were determined from a 4-parameter robust fit model with the Prism software (GraphPad Software). […]
Give bare numbers.

CCc1cc(O)c(F)cc1-c1ccc2c(-c3nc4c([nH]3)CN(C(C)C)[C@H](C(=O)N3CCCN(C)CC3)C4)n[nH]c2c1 [Compound C-4, reference compound]	9.3
CCc1cc(O)c(F)cc1-c1ccc2c(-c3nc4c([nH]3)CN(C)[C@H](C(=O)N3CCN(C)C[C@@H]3C)C4)n[nH]c2c1 [Compound C-3, reference compound]	9.3
CCCN1Cc2[nH]c(-c3n[nH]c4cc(-c5cc(F)c(O)cc5CC)ccc34)nc2C[C@H]1C(=O)N1C[C@@H]2C[C@H]1CN2C [Compound C-2, reference compound]	9.5
CCCN1Cc2[nH]c(-c3n[nH]c4cc(-c5ccc(O)cc5CC)ccc34)nc2C[C@H]1C(=O)N1CCN(CCO)CC1	9.0
CCCN1Cc2[nH]c(-c3n[nH]c4cc(-c5cc(F)c(O)cc5CC)ccc34)nc2C[C@H]1C(=O)N1CCN(CCO)CC1 [Compound C-1, reference compound]	9.1

Quick one: give me Tyk2 pKi for each item below, same order please.
1. CCc1cc(O)c(F)cc1-c1ccc2c(-c3nc4c([nH]3)CN(C)[C@H](C(=O)N3CCN(CCO)C[C@H]3C)C4)n[nH]c2c1 [Compound C-5, reference compound]
2. CCCN1Cc2[nH]c(-c3n[nH]c4cc(-c5ccc(O)cc5CC)ccc34)nc2C[C@H]1C(=O)N1C[C@@H]2C[C@H]1CN2C

OUTPUT:
[9.5, 8.9]

---

Experiment: Lung and plasma drug concentration in the murine IL-13 pSTAT6 model
Type: in vivo
Details: mouse, lung, other: oral aspiration, 50 µg/mouse; Balb/c mice, 1 mg/mL, 50 μL oral aspiration, 5 hr post dose; read-out: Lung Concentration (ng/g) at 5 hr
Measure Name: concentration at 5 h (ng/g)
Numbers only, in ng/g.

CCc1cc(O)ccc1-c1ccc2c(-c3nc4c([nH]3)CN(C)[C@H](C(=O)N3CCN(CCO)C[C@H]3C)C4)n[nH]c2c1	5440
CCCN1Cc2[nH]c(-c3n[nH]c4cc(-c5ccc(O)cc5CC)ccc34)nc2C[C@H]1C(=O)N1C[C@@H]2C[C@H]1CN2C	23400
CCCN1Cc2[nH]c(-c3n[nH]c4cc(-c5ccc(O)cc5CC)ccc34)nc2C[C@H]1C(=O)N1CCN(CCO)CC1	13000

Provide each entry's concentration at 5 h from the list below.
1. CCc1cc(O)ccc1-c1ccc2c(-c3nc4c([nH]3)CN(C(C)C)[C@H](C(=O)N3CCCN(C)CC3)C4)n[nH]c2c1
2. CCc1cc(O)ccc1-c1ccc2c(-c3nc4c([nH]3)CN(C(C)C)[C@H](C(=O)N3CC[C@H](N(C)C)C3)C4)n[nH]c2c1

OUTPUT:
[17400, 11600]

---

Exercise: state measured JAK3 PKi for each of the compounds provided.
Target: JAK3 (Homo sapiens (Human), UniProt P52333)
Sequence (P52333 whole entry): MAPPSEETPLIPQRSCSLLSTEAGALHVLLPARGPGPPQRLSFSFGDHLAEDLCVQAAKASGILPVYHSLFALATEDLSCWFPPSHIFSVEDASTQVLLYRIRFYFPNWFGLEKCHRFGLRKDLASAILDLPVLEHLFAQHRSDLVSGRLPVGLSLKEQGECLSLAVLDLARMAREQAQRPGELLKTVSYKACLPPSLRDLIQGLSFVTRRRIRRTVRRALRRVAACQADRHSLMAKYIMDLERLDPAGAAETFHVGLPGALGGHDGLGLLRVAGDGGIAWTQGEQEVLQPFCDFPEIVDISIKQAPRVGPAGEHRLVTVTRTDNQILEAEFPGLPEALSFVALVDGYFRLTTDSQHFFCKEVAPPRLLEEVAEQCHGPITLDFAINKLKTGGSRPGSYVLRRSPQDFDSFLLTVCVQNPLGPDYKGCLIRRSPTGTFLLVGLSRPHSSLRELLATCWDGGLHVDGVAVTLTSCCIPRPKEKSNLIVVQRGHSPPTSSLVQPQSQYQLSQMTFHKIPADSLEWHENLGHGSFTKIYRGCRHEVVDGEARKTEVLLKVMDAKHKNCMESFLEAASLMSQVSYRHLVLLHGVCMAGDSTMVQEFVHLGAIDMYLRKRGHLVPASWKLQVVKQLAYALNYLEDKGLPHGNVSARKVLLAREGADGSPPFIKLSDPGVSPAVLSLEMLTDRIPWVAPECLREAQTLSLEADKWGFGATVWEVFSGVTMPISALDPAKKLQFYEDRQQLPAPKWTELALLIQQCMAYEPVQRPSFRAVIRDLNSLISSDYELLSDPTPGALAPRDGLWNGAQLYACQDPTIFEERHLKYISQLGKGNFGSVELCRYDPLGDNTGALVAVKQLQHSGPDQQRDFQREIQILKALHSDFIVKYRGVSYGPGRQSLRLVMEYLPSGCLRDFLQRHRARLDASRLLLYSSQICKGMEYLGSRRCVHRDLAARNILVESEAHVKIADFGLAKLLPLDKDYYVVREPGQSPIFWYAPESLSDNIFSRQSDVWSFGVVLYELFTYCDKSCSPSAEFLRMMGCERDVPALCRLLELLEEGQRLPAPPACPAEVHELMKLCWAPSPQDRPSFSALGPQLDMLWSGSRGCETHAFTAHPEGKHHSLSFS
Type: biochemical
Answers are plain numbers.

CCc1cc(O)c(F)cc1-c1ccc2c(-c3nc4c([nH]3)CN(C)[C@H](C(=O)N3CCN(CCO)C[C@H]3C)C4)n[nH]c2c1 [Compound C-5, reference compound]	9.9
CCc1cc(O)c(F)cc1-c1ccc2c(-c3nc4c([nH]3)CN(C)[C@H](C(=O)N3CCN(C)C[C@@H]3C)C4)n[nH]c2c1 [Compound C-3, reference compound]	9.7

Switching to the query record.
INPUT: Would you mind telling me what JAK3 PKi value was observed for "CCc1cc(O)ccc1-c1ccc2c(-c3nc4c([nH]3)CN(C)[C@H](C(=O)N3CCN(CCO)C[C@H]3C)C4)n[nH]c2c1" ?
OUTPUT: 10.1

---

Target: Tyk2 (Homo sapiens (Human))
Test: Biochemical JAK kinase assay (LanthaScreen), Tyk2
For each record, write down the corresponding Tyk2 pKi.
Answers are plain numbers.

Before answering, review these 3 worked examples.
CCc1cc(O)ccc1-c1ccc2c(-c3nc4c([nH]3)CN(C(C)C)[C@H](C(=O)N3CCCN(C)CC3)C4)n[nH]c2c1	9.0
CCc1cc(O)ccc1-c1ccc2c(-c3nc4c([nH]3)CN(C(C)C)[C@H](C(=O)N3CC[C@H](N(C)C)C3)C4)n[nH]c2c1	9.0
CCc1cc(O)ccc1-c1ccc2c(-c3nc4c([nH]3)CN(C)[C@H](C(=O)N3CCN(CCO)C[C@H]3C)C4)n[nH]c2c1	9.2

Consider now this further compound.
INPUT: What Tyk2 pKi value was documented for this compound, "CCc1cc(O)ccc1-c1ccc2c(-c3nc4c([nH]3)CN(C)[C@H](C(=O)N3CCN(C)C[C@@H]3C)C4)n[nH]c2c1" ?
OUTPUT: 9.3

---

Target: JAK2 (Homo sapiens (Human), UniProt O60674)
Sequence (O60674 whole entry): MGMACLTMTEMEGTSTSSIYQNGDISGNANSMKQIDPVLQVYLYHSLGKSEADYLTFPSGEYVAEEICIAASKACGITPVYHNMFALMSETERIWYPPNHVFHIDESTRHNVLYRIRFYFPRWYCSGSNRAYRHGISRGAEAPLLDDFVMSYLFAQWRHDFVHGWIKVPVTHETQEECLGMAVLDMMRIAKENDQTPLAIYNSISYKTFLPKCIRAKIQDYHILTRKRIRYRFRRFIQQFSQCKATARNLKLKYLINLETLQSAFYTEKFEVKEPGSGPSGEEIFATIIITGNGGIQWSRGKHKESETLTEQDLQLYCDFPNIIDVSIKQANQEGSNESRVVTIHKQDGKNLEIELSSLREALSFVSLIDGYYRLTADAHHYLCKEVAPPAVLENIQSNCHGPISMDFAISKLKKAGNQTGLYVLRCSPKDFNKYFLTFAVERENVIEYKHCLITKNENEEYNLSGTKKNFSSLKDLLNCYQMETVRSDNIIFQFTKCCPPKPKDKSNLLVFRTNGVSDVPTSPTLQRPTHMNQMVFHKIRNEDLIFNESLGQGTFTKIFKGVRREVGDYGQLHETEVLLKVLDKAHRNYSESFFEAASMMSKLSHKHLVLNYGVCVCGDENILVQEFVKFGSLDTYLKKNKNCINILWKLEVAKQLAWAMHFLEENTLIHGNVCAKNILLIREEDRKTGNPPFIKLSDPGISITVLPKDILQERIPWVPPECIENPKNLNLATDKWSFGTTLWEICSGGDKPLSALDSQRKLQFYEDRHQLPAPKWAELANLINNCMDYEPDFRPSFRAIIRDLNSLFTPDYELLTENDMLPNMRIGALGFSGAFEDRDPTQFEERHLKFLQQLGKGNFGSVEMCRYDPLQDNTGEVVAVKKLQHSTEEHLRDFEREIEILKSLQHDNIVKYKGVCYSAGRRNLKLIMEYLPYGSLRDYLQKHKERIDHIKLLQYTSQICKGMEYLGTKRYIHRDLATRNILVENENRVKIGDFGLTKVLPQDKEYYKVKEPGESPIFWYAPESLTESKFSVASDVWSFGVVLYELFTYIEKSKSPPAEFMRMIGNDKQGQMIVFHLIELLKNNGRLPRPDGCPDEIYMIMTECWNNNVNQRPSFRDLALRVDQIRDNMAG
Test: Biochemical JAK kinase assay (LanthaScreen), JAK2
Conditions: ATP at Km 3 μM; pIC50 converted with Cheng-Prusoff
Measure Name: JAK2 pKi
One number for each entry.

The cases that follow already have their JAK2 pKi on record.
CCCN1Cc2[nH]c(-c3n[nH]c4cc(-c5cc(F)c(O)cc5CC)ccc34)nc2C[C@H]1C(=O)N1CCN(CCO)CC1 [Compound C-1, reference compound]	10.5
CCCN1Cc2[nH]c(-c3n[nH]c4cc(-c5ccc(O)cc5CC)ccc34)nc2C[C@H]1C(=O)N1C[C@@H]2C[C@H]1CN2C	10.2

Each of the following entries comes with a recorded value; kindly state JAK2 pKi for each.
1. CCCN1Cc2[nH]c(-c3n[nH]c4cc(-c5ccc(O)cc5CC)ccc34)nc2C[C@H]1C(=O)N1CCN(CCO)CC1
2. CCc1cc(O)c(F)cc1-c1ccc2c(-c3nc4c([nH]3)CN(C)[C@H](C(=O)N3CCN(C)C[C@@H]3C)C4)n[nH]c2c1 [Compound C-3, reference compound]

OUTPUT:
[10.3, 10.5]

Please supply JAK2 pKi for each of the following items, keeping them in order.
1. CCc1cc(O)c(F)cc1-c1ccc2c(-c3nc4c([nH]3)CN(C(C)C)[C@H](C(=O)N3CCCN(C)CC3)C4)n[nH]c2c1 [Compound C-4, reference compound]
2. CCCN1Cc2[nH]c(-c3n[nH]c4cc(-c5cc(F)c(O)cc5CC)ccc34)nc2C[C@H]1C(=O)N1C[C@@H]2C[C@H]1CN2C [Compound C-2, reference compound]
3. CCc1cc(O)c(F)cc1-c1ccc2c(-c3nc4c([nH]3)CN(C)[C@H](C(=O)N3CCN(CCO)C[C@H]3C)C4)n[nH]c2c1 [Compound C-5, reference compound]

OUTPUT:
10.6
10.8
10.7
